Molecular target: T1, rat GIP receptor (rat, UniProt P43219 19-455)
T1 sequence (looked up): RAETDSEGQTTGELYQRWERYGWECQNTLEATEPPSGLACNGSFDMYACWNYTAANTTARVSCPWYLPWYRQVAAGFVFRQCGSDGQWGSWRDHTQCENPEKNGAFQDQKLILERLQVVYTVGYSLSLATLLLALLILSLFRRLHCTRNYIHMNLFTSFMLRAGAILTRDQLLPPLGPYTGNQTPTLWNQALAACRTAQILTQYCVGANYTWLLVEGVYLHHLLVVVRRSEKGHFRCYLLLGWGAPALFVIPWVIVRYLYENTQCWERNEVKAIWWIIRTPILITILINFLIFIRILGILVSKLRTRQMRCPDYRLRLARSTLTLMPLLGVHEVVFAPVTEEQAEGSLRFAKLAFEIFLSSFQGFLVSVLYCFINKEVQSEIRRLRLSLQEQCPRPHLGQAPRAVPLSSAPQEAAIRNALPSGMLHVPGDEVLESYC
Test: cell-based or functional assay
Ends that are not written are not given here.
For each record, write down the corresponding cAMP EC50.
One number for each entry, in nM.

Q: I would be grateful if you could share the reported cAMP EC50 for IP201 (Fc fusion) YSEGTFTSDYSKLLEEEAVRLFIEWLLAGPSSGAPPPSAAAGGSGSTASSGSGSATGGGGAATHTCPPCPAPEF .
A: 0.23

Q: I would be grateful if you could share the reported cAMP EC50 for IP323 (Fc fusion) YSEGTFTSDYSKLLEEEAVRLFIEWLVKGPGGGGGSGGGGSGGGGSGGGGSGGGGSGGGGSA .
A: 0.082

Q: I would be grateful if you could share the reported cAMP EC50 for IP124 (Fc fusion) YSEGTFTSDYSKLLEEEAVRLFIEWLVKGAAAGGSGSTASSGSGSATGGGGAATHTCPPCPAPEF .
A: 0.31

Q: I would be grateful if you could share the reported cAMP EC50 for IP297 (Fc fusion) YSEGTFTSDYSKLLEEEAVRLFIEWLLAGGGGGGGGGGGGGGGGGGGGGGGGGACPPC .
A: 0.089

Now take the following binder into account.
Q: I would be grateful if you could share the reported cAMP EC50 for IP235 (Fc fusion, cysteine pairing not given here; also: fused to IgG1-TM Fc) YSEGTFTSDYSKLLEEEAVRLFIEWLVKGPGGGGGSGGGGSATHTCPPCPAPEF .
A: 0.65

Data credit: patent US20160185837A1
